CONDITION_PARAMETERS: human, serum, 4383 h;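 note: chronic liver injury confirmed by histopathology or persistently raised serum aminotransferase activity beyond 6 months, value given as the count of indexed literature references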
Where a SMILES comes first, the peptide text is derived from it. Bridges are numbered along the chain shown (N, C = ends). [ ]: non-standard residue; d: D form. The star is where a group is joined. NMePhe(4-NMe2) = CN[C@@H](Cc1ccc(N(C)C)cc1)C(=O)O; Pip(4-oxo) = O=C1CCN[C@H](C(=O)O)C1; Picolinoyl(3-OH) = O=C(c1ncccc1O)*; Phg = N[C@H](C(=O)O)c1ccccc1; dAbu = CC[C@@H](N)C(=O)O
MEASURED_PARAMETER: Hepatotoxicity (chronic liver disease)
Answers are plain numbers.

Worked examples follow.
[[record]]
molecule = "CC(=O)OCC1=C(C(=O)O)N2C(=O)[C@@H](NC(=O)Cc3cccs3)[C@H]2SC1"
measured_parameter = "Hepatotoxicity (chronic liver disease)"
readout_number = 0

[[record]]
molecule = "COc1c(C)c2c(c(O)c1C/C=C(\\C)CCC(=O)OCCN1CCOCC1)C(=O)OC2 [MYCOPHENOLATE MOFETIL]"
measured_parameter = "Hepatotoxicity (chronic liver disease)"
readout_number = 0

[[record]]
molecule = "[H]/N=C(/N)N[C@H]1[C@H](O)[C@@H](O)[C@H](O[C@@H]2O[C@@H](C)[C@](O)(C=O)[C@H]2O[C@@H]2O[C@@H](CO)[C@H](O)[C@@H](O)[C@@H]2NC)[C@@H](N/C(N)=N\\[H])[C@@H]1O"
measured_parameter = "Hepatotoxicity (chronic liver disease)"
readout_number = 0

[[record]]
molecule = "CC(=O)CC(c1ccc([N+](=O)[O-])cc1)c1c(O)c2ccccc2oc1=O (stereo unspecified)"
measured_parameter = "Hepatotoxicity (chronic liver disease)"
readout_number = 1

[[record]]
molecule = "CC1(C)CC(=O)N(CCCCN2CCN(c3ncccn3)CC2)C(=O)C1 [GEPIRONE]"
measured_parameter = "Hepatotoxicity (chronic liver disease)"
readout_number = 0


Fill in Hepatotoxicity (chronic liver disease) for each of the 4 molecules listed.
1. CC1(C)S[C@@H]2[C@H](NC(=O)C(C(=O)O)c3ccccc3)C(=O)N2[C@H]1C(=O)O (stereo partly specified)
2. CCC[N+]12[C@H](O)[C@@H](CC)[C@@H]3C[C@H]1[C@@H]1N(C)c4ccccc4[C@]14C[C@H]2C3[C@H]4O (stereo partly specified)
3. CCCCCNCC(N)=O [MILACEMIDE]
4. CCC[C@H](N[C@@H](C)C(=O)N1[C@H](C(=O)O)C[C@@H]2CCCC[C@@H]21)C(=O)OCC

0
2
0
0

Fill in Hepatotoxicity (chronic liver disease) for each of the 3 molecules listed.
1. CNC1CCCN(c2c(F)cc3c(=O)c(C(=O)O)cn(C4CC4)c3c2OC)C1 (stereo unspecified)
2. CO[C@@]1(NC(=O)C(C(=O)[O-])c2ccc(O)cc2)C(=O)N2C(C(=O)[O-])=C(CSc3nnnn3C)CO[C@@H]21.[Na+].[Na+] (stereo partly specified) [MOXALACTAM DISODIUM]
3. CCCCC(C)(O)C/C=C/[C@H]1[C@H](O)CC(=O)[C@@H]1CCCCCCCO (stereo partly specified)

0
0
0

Fill in Hepatotoxicity (chronic liver disease) for each of the 4 molecules listed.
1. O=C1Cc2cc(CCN3CCN(c4nsc5ccccc45)CC3)c(Cl)cc2N1
2. OCC(Br)(Br)Br
3. NNCCc1ccccc1
4. CCOc1ccc2ccccc2c1C(=O)N[C@@H]1C(=O)N2[C@@H]1SC(C)(C)[C@@H]2C(=O)O

0
0
0
0

Fill in Hepatotoxicity (chronic liver disease) for each of the 4 molecules listed.
1. C[C@]12Cc3c[nH]nc3C[C@@H]1CC[C@@H]1[C@@H]2CC[C@@]2(C)[C@H]1CC[C@]2(C)O
2. O=C(O)c1ccccc1Nc1cccc(C(F)(F)F)c1
3. Nc1nc(O)c2ncn(COC(CO)CO)c2n1
4. Cc1cc(O)c(C(=O)N[C@@H](C(=O)N[C@@H]2C(=O)N3C(C(=O)O)=C(CSc4nnnn4C)CS[C@H]23)c2ccc(O)cc2)cn1 [CEFPIRAMIDE]

0
0
0
0

Fill in Hepatotoxicity (chronic liver disease) for each of the 6 molecules listed.
1. Cc1c(C)c2c(c(C)c1O)CCC(C)(COc1ccc(CC3SC(=O)NC3=O)cc1)O2 (stereo unspecified)
2. CCN(CC)CCNc1ccc(CO)c2sc3ccccc3c(=O)c12
3. O=C(O)P(=O)(O)O
4. N[C@H](C(=O)O)[C@@H]1CC(Cl)=NO1
5. O=C1c2cccc(O)c2C(=O)c2c(O)cccc21
6. O=C(CCCN1CCN(c2ccc(F)cc2)CC1)NC1c2ccccc2CSc2ccccc21 (stereo unspecified) [MONATEPIL]

[1, 1, 0, 0, 1, 0]

Fill in Hepatotoxicity (chronic liver disease) for each of the 2 molecules listed.
1. CC[C@]1(O)C[C@@H]2CN(CCc3c([nH]c4ccccc34)[C@@](C(=O)OC)(c3cc4c(cc3OC)N(C)[C@H]3[C@@](O)(C(=O)OC)[C@H](OC(C)=O)[C@]5(CC)C=CCN6CC[C@]43[C@@H]65)C2)C1
2. O=C1NCCN1c1ncc([N+](=O)[O-])s1

1. 0
2. 0

Fill in Hepatotoxicity (chronic liver disease) for each of the 3 molecules listed.
1. O=c1[nH]c(=O)n([C@H]2C[C@H](O)[C@@H](CO)O2)cc1F
2. CC[C@H]1NC(=O)[C@@H](NC(=O)c2ncccc2O)[C@@H](C)OC(=O)[C@H](c2ccccc2)NC(=O)[C@@H]2CC(=O)CCN2C(=O)[C@H](Cc2ccc(N(C)C)cc2)N(C)C(=O)[C@@H]2CCCN2C1=O [PRISTINAMYCIN 1A] ({Picolinoyl(3-OH)}-T[dAbu]P[NMePhe(4-NMe2)][Pip(4-oxo)][Phg]; ester 1-C)
3. CC(/C=C1\SC(=S)N(CC(=O)O)C1=O)=C\c1ccccc1

0
0
0
